Listing: pIC50 of selected compounds
Biological target: telomerase (Homo sapiens)
Construct: A549 cells (human epithelial cell lung carcinoma, ATCC, Manassas, VA) were lysed in
Sequence (O14746 whole entry): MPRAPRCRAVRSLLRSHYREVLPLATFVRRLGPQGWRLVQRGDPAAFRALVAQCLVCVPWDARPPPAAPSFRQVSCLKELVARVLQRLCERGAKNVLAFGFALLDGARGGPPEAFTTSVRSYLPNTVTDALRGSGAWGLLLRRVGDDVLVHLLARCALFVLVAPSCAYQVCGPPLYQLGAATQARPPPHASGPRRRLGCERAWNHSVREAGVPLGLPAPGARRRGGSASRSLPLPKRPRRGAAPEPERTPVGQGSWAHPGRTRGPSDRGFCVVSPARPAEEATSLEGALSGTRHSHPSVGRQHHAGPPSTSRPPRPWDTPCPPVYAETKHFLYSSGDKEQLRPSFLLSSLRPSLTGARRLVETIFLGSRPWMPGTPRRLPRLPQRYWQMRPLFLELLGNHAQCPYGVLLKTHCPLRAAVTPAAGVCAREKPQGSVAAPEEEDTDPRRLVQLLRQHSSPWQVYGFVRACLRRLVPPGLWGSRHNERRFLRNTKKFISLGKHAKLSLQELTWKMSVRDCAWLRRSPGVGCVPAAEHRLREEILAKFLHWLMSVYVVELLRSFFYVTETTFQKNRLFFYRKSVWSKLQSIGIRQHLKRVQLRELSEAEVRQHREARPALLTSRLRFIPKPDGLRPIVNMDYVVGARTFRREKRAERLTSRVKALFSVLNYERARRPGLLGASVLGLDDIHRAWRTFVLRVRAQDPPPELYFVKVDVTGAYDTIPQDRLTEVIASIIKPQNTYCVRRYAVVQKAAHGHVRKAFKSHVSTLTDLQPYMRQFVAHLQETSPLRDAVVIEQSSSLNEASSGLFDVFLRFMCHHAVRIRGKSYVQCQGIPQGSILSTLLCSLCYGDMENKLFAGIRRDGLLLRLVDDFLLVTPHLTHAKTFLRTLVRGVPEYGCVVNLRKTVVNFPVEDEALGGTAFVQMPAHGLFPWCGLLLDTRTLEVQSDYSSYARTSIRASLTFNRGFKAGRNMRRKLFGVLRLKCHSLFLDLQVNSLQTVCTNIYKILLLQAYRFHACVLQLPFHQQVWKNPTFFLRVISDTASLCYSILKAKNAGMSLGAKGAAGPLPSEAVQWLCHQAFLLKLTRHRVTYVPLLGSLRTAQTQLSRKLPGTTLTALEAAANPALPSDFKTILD
Sequence (O60832 whole entry partner): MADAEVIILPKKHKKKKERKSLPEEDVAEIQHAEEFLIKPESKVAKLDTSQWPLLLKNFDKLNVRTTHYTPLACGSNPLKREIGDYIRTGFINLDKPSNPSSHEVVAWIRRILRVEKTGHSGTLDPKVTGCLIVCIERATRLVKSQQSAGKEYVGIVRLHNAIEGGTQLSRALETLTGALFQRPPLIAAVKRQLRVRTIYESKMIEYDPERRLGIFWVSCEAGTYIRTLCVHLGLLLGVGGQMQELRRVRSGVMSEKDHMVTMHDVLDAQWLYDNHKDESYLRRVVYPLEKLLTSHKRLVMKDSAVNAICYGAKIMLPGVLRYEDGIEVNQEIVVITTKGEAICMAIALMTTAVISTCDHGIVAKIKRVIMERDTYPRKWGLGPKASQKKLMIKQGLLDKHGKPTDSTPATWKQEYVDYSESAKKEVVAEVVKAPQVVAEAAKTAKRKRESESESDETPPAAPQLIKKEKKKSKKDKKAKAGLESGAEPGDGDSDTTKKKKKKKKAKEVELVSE
Sequence (Q9NX24 whole entry partner): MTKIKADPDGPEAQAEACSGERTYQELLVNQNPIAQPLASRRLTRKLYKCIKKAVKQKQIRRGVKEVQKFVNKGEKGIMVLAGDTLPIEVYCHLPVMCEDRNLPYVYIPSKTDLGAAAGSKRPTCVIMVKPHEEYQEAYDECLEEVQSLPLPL
Sequence (Q9NPE3 whole entry partner): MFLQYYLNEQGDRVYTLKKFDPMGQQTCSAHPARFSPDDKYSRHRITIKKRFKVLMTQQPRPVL
Sequence (Q9NY12 whole entry partner): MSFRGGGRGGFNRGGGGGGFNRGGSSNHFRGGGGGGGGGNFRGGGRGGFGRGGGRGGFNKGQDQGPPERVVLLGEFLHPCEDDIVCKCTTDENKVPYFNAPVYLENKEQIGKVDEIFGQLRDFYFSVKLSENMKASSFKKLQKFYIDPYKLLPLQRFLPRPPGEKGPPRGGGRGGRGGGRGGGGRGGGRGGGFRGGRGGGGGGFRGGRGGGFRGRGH
Sequence (Q9BUR4 whole entry partner): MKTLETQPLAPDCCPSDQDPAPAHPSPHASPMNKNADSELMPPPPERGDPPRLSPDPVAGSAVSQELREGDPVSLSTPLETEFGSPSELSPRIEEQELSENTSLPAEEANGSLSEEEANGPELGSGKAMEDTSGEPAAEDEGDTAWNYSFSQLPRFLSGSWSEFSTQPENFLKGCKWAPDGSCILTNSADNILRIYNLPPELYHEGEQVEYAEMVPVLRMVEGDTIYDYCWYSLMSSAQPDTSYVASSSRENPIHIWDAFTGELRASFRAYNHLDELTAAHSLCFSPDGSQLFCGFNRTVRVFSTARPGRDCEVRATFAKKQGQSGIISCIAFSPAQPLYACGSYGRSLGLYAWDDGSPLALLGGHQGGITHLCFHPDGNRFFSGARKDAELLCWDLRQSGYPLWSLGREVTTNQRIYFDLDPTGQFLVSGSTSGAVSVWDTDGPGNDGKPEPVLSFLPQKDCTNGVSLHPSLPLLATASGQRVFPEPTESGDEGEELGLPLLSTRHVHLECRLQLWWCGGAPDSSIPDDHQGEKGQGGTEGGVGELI
Assay: TRAP / RTQ-TRAP telomerase activity assay in A549 cell-free lysates;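 also: telomerase activity measured in cell-free extracts of human A549 epithelial lung carcinoma cells, tested across a range of inhibitor concentrations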
Settings: telomerase inhibition, mean ± SEM
pIC50: −log10 of the molar value.
Reported metric: pIC50

>>> experimental_result("N#C/C(=C\\c1c[nH]c2ccccc12)C(=O)Nc1sc2c(c1C#N)CCC2 [Compound 39a]")
5.60
>>> experimental_result("N#C/C(=C\\c1ccc(N2CCOCC2)cc1)C(=O)Nc1sc2c(c1C#N)CCC2 [Compound 30a]")
5.28
>>> experimental_result("N#C/C(=C\\c1cccc2c1OCO2)C(=O)Nc1sc2c(c1C#N)CCC2 [Compound 37a]")
4.63
>>> experimental_result("CN1CCN(c2ccc(/C=C(\\C#N)C(=O)Nc3sc4c(c3C#N)CCCC4)cc2)CC1 [Compound 31b]")
4.05
>>> experimental_result("N#C/C(=C\\c1ccc(C(F)(F)F)cc1)C(=O)Nc1sc2c(c1C#N)CCC2 [Compound 25a]")
4.68
>>> experimental_result("N#C/C(=C\\c1cccc2ccccc12)C(=O)Nc1sc2c(c1C#N)CCC2 [Compound 35a]")
5.29
>>> experimental_result("N#C/C(=C\\c1ccc2c(c1)OCO2)C(=O)Nc1sc2c(c1C#N)CCC2 [Compound 38a]")
4.60
>>> experimental_result("N#C/C(=C\\c1ccc2c(c1)OCO2)C(=O)Nc1sc2c(c1C#N)CCCC2 [Compound 38b]")
4.39
